Target: human melanocortin-1 receptor hMCR-1 expressed by the human melanoma cell line HBL (human, UniProt Q01726 1-317)
Sequence (Q01726 whole entry): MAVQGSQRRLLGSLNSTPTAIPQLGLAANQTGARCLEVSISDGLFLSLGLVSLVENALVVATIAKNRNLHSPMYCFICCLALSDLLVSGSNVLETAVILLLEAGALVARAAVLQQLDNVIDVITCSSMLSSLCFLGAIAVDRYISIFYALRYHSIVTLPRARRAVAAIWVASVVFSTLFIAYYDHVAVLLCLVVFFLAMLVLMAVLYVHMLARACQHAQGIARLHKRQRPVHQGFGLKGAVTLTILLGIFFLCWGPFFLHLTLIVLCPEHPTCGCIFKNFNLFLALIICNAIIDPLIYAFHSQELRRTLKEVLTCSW
Assay: cell-based or functional assay
Bridge positions count the residues as written; N and C are the ends. Square brackets hold non-standard residues; d marks the D form. dPhe(3-Cl) = N[C@H](Cc1cccc(Cl)c1)C(=O)O; dPhe(2-F) = N[C@H](Cc1ccccc1F)C(=O)O; Nle = CCCC[C@H](N)C(=O)O; Orn = NCCC[C@H](N)C(=O)O; Dab = NCC[C@H](N)C(=O)O; Dap = NC[C@H](N)C(=O)O
Response field label takes TRUE when MC-1 EC50 (average; cAMP HBL) is strictly below 0.2 nM and FALSE in all other cases.

BINDER	ANSWER LABEL
Ac-[Nle][Dab]H[dF]R[Dap]W-NH2 (linker 2-6 via C(:O)‑(CH2)2‑C(:O)) [Ac-Nle-cyclo(Dab-His-D-Phe-Arg-Dap)-Trp-NH2 with bridge C(═O)-(CH2)2-C(═O)]	TRUE
Ac-[Nle]EH[dF]R[Dab]K-NH2 (lactam 2-6; SMILES CCCC[C@H](NC(C)=O)C(=O)N[C@H]1CCC(=O)NCC[C@@H](C(=O)N[C@@H](CCCCN)C(N)=O)NC(=O)[C@H](CCCNC(=N)N)NC(=O)[C@@H](Cc2ccccc2)NC(=O)[C@H](Cc2c[nH]cn2)NC1=O) [Ac-Nle-cyclo(Glu-His-D-Phe-Arg-Dab)-Lys-NH2]	TRUE
Ac-[Nle]EH[dF]A[Dab]-NH2 (lactam 2-6; SMILES CCCC[C@H](NC(C)=O)C(=O)N[C@H]1CCC(=O)NCC[C@@H](C(N)=O)NC(=O)[C@H](C)NC(=O)[C@@H](Cc2ccccc2)NC(=O)[C@H](Cc2c[nH]cn2)NC1=O) [Ac-Nle-cyclo(Glu-His-D-Phe-Ala-Dab)-NH2]	FALSE
Ac-[Nle]E[Orn][dPhe(2-F)]R[Dab]-NH2 (lactam 2-6; SMILES CCCC[C@H](NC(C)=O)C(=O)N[C@H]1CCC(=O)NCC[C@@H](C(N)=O)NC(=O)[C@H](CCCNC(=N)N)NC(=O)[C@@H](Cc2ccccc2F)NC(=O)[C@H](CCCN)NC1=O) [Ac-Nle-cyclo(Glu-Orn-D-Phe(2-F)-Arg-Dab)-NH2]	FALSE
Ac-[Nle]EH[dF]A[Dab]W-NH2 (lactam 2-6; SMILES CCCC[C@H](NC(C)=O)C(=O)N[C@H]1CCC(=O)NCC[C@@H](C(=O)N[C@@H](Cc2c[nH]c3ccccc23)C(N)=O)NC(=O)[C@H](C)NC(=O)[C@@H](Cc2ccccc2)NC(=O)[C@H](Cc2c[nH]cn2)NC1=O) [Ac-Nle-cyclo(Glu-His-D-Phe-Ala-Dab)-Trp-NH2 (SEQ ID NO: 51)]	TRUE
Ac-[Nle]E[Orn][dPhe(3-Cl)]R[Dab]-NH2 (lactam 2-6; SMILES CCCC[C@H](NC(C)=O)C(=O)N[C@H]1CCC(=O)NCC[C@@H](C(N)=O)NC(=O)[C@H](CCCNC(=N)N)NC(=O)[C@@H](Cc2cccc(Cl)c2)NC(=O)[C@H](CCCN)NC1=O) [Ac-Nle-cyclo(Glu-Orn-D-Phe(3-Cl)-Arg-Dab)-NH2]	FALSE
